# measured.on: Dopamine Transporter (DAT) (Homo sapiens)
# Sequence (Q01959 whole entry): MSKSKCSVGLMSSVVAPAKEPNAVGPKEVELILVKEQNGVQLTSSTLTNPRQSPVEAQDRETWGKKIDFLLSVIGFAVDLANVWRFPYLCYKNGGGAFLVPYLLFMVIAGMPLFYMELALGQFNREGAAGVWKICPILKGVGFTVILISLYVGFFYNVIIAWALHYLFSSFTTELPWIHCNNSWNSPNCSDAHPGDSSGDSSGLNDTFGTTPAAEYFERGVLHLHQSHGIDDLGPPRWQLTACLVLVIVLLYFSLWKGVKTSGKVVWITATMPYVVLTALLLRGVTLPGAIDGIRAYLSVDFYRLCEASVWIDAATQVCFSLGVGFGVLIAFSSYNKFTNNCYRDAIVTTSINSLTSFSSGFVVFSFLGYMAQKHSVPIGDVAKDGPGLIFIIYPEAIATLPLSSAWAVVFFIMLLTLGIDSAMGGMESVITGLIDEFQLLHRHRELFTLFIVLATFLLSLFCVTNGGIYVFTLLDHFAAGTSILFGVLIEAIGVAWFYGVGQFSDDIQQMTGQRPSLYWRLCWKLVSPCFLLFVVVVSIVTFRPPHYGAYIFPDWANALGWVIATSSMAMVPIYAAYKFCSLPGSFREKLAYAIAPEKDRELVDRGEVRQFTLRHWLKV
# protocol.text: Radioligand binding assay, [125I] RTI-55, Dopamine Transporter
# stated.conditions: human recombinant, CHO-K1 cell membranes; [125I] RTI-55 0.15 nM; 3 hours at 4° C.; read-out: ˜IC50, inhibition of binding to DAT
measured.property: IC50 (nM)
Write the answer as a number in nM, unit excluded.

### Prompt Record request: IC50 value, item CC(C)[C@@H](CC[C@@H](C)[C@H]1CC[C@H]2[C@@H]3[C@H](O)C[C@H]4C[C@@H](NCCCNCCCCNCCCN)CC[C@]4(C)[C@H]3CC[C@]12C)OS(=O)(=O)O
### Response 1740
